Target: T1, recombinant human ASM protein (human, UniProt P17405 47-630)
T1 construct: Recombinant human ASM in solution; also called acid sphingomyelinase (ASM) protein
T1 sequence: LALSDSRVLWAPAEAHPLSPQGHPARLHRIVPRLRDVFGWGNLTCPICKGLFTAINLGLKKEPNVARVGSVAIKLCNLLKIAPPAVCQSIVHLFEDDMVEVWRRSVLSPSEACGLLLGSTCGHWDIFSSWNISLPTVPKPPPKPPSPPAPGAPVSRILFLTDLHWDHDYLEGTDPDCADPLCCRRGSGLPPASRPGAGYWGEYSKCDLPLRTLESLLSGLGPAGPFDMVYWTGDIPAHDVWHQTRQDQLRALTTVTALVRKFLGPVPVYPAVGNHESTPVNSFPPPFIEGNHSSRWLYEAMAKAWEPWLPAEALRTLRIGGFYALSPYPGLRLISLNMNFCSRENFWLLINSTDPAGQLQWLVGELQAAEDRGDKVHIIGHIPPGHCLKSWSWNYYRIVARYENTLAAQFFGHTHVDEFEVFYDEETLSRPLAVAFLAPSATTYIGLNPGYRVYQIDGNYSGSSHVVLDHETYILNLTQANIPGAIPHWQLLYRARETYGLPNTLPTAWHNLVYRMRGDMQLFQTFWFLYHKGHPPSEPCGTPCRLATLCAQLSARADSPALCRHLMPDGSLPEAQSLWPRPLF
Experiment: BLI (Octet), antibody on AHC sensor
Exercise: for every item that follows, state its recorded kon.
Field format: number, assumed M⁻¹ s⁻¹, no unit text.

input: Can you share its kon? I mean this binder: #9104a-A7 (antibody, human IgG4 S228P, lambda, V domains shown, VH of #9104v-H31 with VL of #9104v-L20; full-length IgG, lambda) VH: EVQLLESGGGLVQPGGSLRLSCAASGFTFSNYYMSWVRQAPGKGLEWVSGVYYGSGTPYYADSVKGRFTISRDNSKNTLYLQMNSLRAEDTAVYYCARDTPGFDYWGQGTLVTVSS VL: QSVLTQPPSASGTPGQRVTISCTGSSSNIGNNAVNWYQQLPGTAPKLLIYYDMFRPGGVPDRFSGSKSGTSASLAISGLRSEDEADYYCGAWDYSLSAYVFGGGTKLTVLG
output: 230000

input: Can you share its kon? I mean this binder: #9104a-E4 (antibody, human IgG4 S228P, lambda, V domains shown, VH of #9104v-H17 with VL of #9104v-L65; full-length IgG, lambda) VH: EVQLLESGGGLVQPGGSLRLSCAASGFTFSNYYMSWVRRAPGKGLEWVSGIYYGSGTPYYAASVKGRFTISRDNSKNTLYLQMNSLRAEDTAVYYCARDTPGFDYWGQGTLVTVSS VL: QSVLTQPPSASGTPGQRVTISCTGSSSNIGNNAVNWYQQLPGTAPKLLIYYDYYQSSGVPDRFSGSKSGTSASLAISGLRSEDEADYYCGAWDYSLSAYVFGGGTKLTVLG
output: 210000

input: Can you share its kon? I mean this binder: #9104a-A2 (antibody, human IgG4 S228P, lambda, V domains shown, VH of #9104v-H11 with VL of #9104v-L20; full-length IgG, lambda) VH: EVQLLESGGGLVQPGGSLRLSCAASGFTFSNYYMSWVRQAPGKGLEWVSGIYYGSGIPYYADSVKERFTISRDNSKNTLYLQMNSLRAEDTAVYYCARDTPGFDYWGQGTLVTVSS VL: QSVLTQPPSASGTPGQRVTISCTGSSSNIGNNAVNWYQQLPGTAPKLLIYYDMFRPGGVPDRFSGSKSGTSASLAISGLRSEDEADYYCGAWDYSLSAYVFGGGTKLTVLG
output: 206000

input: Can you share its kon? I mean this binder: #9104a-A6 (antibody, human IgG4 S228P, lambda, V domains shown, VH of #9104v-H27 with VL of #9104v-L20; full-length IgG, lambda) VH: EVQLLESGGGLVQPGGSLRLSCAASGFTFSNYYMSWVRQAPGKGLEWVSGTYYDSGYVYYADSVKGRFTISRDNSKNTLYLQMNSLRAEDTAVYYCARDTPGFDYWGQGTLVTVSS VL: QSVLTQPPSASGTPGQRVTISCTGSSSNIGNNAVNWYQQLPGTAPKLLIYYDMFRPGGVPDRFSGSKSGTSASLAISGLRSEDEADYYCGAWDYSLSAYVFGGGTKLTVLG
output: 90600

input: Can you share its kon? I mean this binder: #9104a-E2 (antibody, human IgG4 S228P, lambda, V domains shown, VH of #9104v-H11 with VL of #9104v-L65; full-length IgG, lambda) VH: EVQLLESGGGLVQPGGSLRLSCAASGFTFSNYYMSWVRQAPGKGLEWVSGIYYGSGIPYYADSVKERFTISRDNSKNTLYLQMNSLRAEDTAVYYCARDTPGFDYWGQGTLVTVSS VL: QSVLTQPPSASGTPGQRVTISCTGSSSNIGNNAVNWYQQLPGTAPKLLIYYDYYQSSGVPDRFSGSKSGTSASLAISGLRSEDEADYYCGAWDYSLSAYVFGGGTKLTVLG
output: 202000

input: Can you share its kon? I mean this binder: #9104a-D6 (antibody, human IgG4 S228P, lambda, V domains shown, VH of #9104v-H27 with VL of #9104v-L64; full-length IgG, lambda) VH: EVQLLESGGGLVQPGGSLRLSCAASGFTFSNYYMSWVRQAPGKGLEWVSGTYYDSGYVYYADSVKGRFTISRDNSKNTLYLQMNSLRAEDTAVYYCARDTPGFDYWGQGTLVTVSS VL: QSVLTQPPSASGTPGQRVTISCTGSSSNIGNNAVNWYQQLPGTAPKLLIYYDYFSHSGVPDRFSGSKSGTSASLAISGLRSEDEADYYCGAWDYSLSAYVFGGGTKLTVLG
output: 81200

input: Can you share its kon? I mean this binder: #9104a-B4 (antibody, human IgG4 S228P, lambda, V domains shown, VH of #9104v-H17 with VL of #9104v-L21; full-length IgG, lambda) VH: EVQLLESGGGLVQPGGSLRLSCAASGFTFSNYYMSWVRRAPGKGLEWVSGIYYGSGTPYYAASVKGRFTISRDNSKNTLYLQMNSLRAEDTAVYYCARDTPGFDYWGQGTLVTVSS VL: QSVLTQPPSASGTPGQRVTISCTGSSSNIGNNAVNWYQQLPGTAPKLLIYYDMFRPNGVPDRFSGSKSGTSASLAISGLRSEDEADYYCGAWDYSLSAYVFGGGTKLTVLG
output: 245000

input: Can you share its kon? I mean this binder: #9104a-C4 (antibody, human IgG4 S228P, lambda, V domains shown, VH of #9104v-H17 with VL of #9104v-L23; full-length IgG, lambda) VH: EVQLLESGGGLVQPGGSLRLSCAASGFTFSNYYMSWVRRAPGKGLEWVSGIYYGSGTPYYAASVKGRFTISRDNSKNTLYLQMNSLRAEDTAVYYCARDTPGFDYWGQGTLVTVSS VL: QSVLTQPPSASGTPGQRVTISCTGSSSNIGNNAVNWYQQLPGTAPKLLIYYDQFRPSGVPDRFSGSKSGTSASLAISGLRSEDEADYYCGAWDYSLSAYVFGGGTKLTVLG
output: 317000

input: Can you share its kon? I mean this binder: #9104a-A5 (antibody, human IgG4 S228P, lambda, V domains shown, VH of #9104v-H19 with VL of #9104v-L20; full-length IgG, lambda) VH: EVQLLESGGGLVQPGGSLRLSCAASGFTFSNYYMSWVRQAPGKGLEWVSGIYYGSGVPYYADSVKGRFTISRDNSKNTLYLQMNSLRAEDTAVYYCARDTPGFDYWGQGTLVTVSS VL: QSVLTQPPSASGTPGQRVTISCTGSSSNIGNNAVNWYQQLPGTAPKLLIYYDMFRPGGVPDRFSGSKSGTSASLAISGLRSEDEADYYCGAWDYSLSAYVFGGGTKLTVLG
output: 246000

input: Can you share its kon? I mean this binder: #9104a-A8 (antibody, human IgG4 S228P, lambda, V domains shown, VH of #9104v-H33 with VL of #9104v-L20; full-length IgG, lambda) VH: EVQLLESGGGLVQPGGSLRLSCAASGFTFSNYYMSWVRQAPGKGLEWVSGVYYPSGNPYYADSVKGRFTISRDNSKNTLYLQMNSLRAEDTAVYYCARDTPGFDYWGQGTLVTVSS VL: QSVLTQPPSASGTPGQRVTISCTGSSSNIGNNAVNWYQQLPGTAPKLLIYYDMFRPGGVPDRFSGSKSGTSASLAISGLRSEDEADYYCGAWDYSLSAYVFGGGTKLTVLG
output: 191000
